These measurements were taken from the supplement of paper PMC12855868.

B1: library; numbered along this chain (parent)
chain: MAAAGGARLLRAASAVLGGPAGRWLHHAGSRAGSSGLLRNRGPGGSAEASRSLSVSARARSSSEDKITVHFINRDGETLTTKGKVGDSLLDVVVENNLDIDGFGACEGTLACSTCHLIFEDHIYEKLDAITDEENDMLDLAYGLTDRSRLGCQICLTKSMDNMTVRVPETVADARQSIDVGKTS

Variants of: B1
test: scaled log2 fold change in cell abundance, elesclomol vs control (0 = silent mean, 1 = nonsense mean) (scaled log2 ratio); higher = higher viability under elesclomol (loss of FDX1 cuproptosis function);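 note: variant abundance is its share of total variant reads in each endpoint sample, from next-generation sequencing of the integrated ORF PCR-amplified out of genomic DNA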
condition: with HEK293T FDX1 KO; elesclomol 40 nM; glucose 10 mM; 11 days
Outcome: Met for scaled log2 fold change of at least -0.04; Not met for anything lower.

>  <mutation string>
G45D

>  <cat>
Met

$$$$
>  <mutation string>
Y124K

>  <cat>
Not met

$$$$
>  <mutation string>
V180L

>  <cat>
Not met

$$$$
>  <mutation string>
V85H

>  <cat>
Not met

$$$$
>  <mutation string>
V92P

>  <cat>
Met

$$$$
>  <mutation string>
E120W

>  <cat>
Not met

$$$$
>  <mutation string>
T78W

>  <cat>
Not met

$$$$
>  <mutation string>
G6K

>  <cat>
Not met

$$$$
>  <mutation string>
L110R

>  <cat>
Met

$$$$
>  <mutation string>
C106E

>  <cat>
Met

$$$$

Task: Check the entry S113R : does scaled log2 fold change equal or exceed -0.04?
Output: Met

Task: Check the entry L110C : does scaled log2 fold change equal or exceed -0.04?
Output: Not met

Task: Check the entry G6W : does scaled log2 fold change equal or exceed -0.04?
Output: Met

Task: Check the entry V85Q : does scaled log2 fold change equal or exceed -0.04?
Output: Not met

Task: Check the entry E169N : does scaled log2 fold change equal or exceed -0.04?
Output: Met

Task: Check the entry V94Q : does scaled log2 fold change equal or exceed -0.04?
Output: Not met

Task: Check the entry T157R : does scaled log2 fold change equal or exceed -0.04?
Output: Met

Task: Check the entry R51Y : does scaled log2 fold change equal or exceed -0.04?
Output: Not met

Task: Check the entry L17S : does scaled log2 fold change equal or exceed -0.04?
Output: Met

Task: Check the entry G44K : does scaled log2 fold change equal or exceed -0.04?
Output: Not met
